Listed here are compounds together with their documented IC50.
Tested on: Escherichia coli
Test: Antibacterial activity against Escherichia coli by transcription-translation assay
Type: functional
Could you give me the number in µM? Just the number is fine.

Study these solved cases before continuing.
smiles repr: CNC(=O)[C@H]1CN(c2cc(F)c(N3CCCOCC3)c(F)c2)C(=O)O1
IC50 [µM]: 6.37
--
smiles repr: COC(=O)NC[C@H]1CN(c2cc(F)c(N3CCCOCC3)c(F)c2)C(=O)O1
IC50 [µM]: 1.9
--
smiles repr: CC(=O)NC[C@H]1CN(c2cc(F)c(N3CCCOCC3)c(F)c2F)C(=O)O1
IC50 [µM]: 3.93

Form field IC50, entry CNC(=O)[C@H]1CN(c2cc(F)c(N3CCCOCC3)c(F)c2F)C(=O)O1 : 18.9

---

Tested on: Enterococcus faecalis
Assay: Antibacterial activity against Enterococcus faecalis MGH-2 EF1-1 by micro broth method
Format: functional
value type: MIC (µg/mL)
Could you give me the number in µg/mL? Just the number is fine.

smiles repr: NC(=O)[C@H]1CN(c2ccc(N3CCCOCC3)c(F)c2)C(=O)O1
numeric readout: 16
//
smiles repr: COC(=O)NC[C@H]1CN(c2cc(F)c(N3CCCOCC3)c(F)c2)C(=O)O1
numeric readout: 2
//
smiles repr: O=C1O[C@@H](CO)CN1c1cc(F)c(N2CCCOCC2)c(F)c1
numeric readout: 8

Form field MIC, entry CC(=O)NC[C@H]1CN(c2cc(F)c(N3CCCOCC3)c(F)c2F)C(=O)O1 : 2

---

Test system: Enterococcus faecalis
Experiment: Antibacterial activity against Enterococcus faecalis MGH-2 EF1-1 by micro broth method
Type: functional
Listed here are compounds together with their documented MIC.

Study these solved cases before continuing.
smiles repr: NC(=O)[C@H]1CN(c2cc(F)c(N3CCCOCC3)c(F)c2F)C(=O)O1
MIC: 32 µg/mL

smiles repr: CC(C)(C)OC(=O)NC[C@H]1CN(c2cc(F)c(N3CCCOCC3)c(F)c2)C(=O)O1
MIC: 32 µg/mL

smiles repr: CNC(=O)[C@H]1CN(c2cc(F)c(N3CCCOCC3)c(F)c2)C(=O)O1
MIC: 8 µg/mL

smiles repr: CC(=O)NC[C@H]1CN(c2ccc(N3CCCOCC3)c(F)c2)C(=O)O1
MIC: 2 µg/mL

smiles repr: NC(=O)[C@H]1CN(c2ccc(N3CCCOCC3)cc2)C(=O)O1
MIC: 64 µg/mL

Then this compound:
Form field MIC, entry CNC(=O)[C@H]1CN(c2ccc(N3CCCOCC3)cc2)C(=O)O1 : 64 µg/mL

---

Test system: Escherichia coli
Assay: Antibacterial activity against Escherichia coli by transcription-translation assay
Type: functional
Listed here are compounds together with their documented log10 IC50.
Form field - Quantity: IC50; Unit: nM; Scale: log10

Study these solved cases before continuing.
smiles repr: NC(=O)[C@H]1CN(c2cc(F)c(N3CCCOCC3)c(F)c2F)C(=O)O1
log10 IC50: 4.37
//
smiles repr: NC(=O)[C@H]1CN(c2cc(F)c(N3CCCOCC3)c(F)c2)C(=O)O1
log10 IC50: 3.77
//
smiles repr: CC(=O)NC[C@H]1CN(c2cc(F)c(N3CCCOCC3)c(F)c2)C(=O)O1
log10 IC50: 3.22

Form field log10 IC50, entry CCC(=O)NC[C@H]1CN(c2cc(F)c(N3CCCOCC3)c(F)c2)C(=O)O1 : 3.32

Form field log10 IC50, entry CC(=O)NC[C@H]1CN(c2ccc(N3CCCOCC3)c(F)c2)C(=O)O1 : 3.36
